Test system: HCC-2998 colon
method: NCI tumour cell line growth inhibition, 48 h
metric: TGI

Hi, could you look up TGI for each item in my list?
1. Cc1cccc(C)c1NC(=O)CCC(=O)NC(N)=S
2. C[N+](C)(C)CC(=O)N/N=C(/CC1OC(=O)c2ccccc21)c1ccccc1O (configuration not stated)
3. CCCCCCCCCCCC(O)=C1C(=O)CC(O)CC1=O (configuration not stated)
4. NCCP(=O)(O)O
5. CCCCCCCCCCCCCCCC(=O)OC(COC(C)=O)CO[P+](=O)O (configuration not stated)

["> 100 µM", "50.9 µM", "> 100 µM", "> 100 µM", "42.7 µM"]

Take each entry in turn and give its TGI.
1. CN1CCN(c2ccc(NC3=C(Cl)C(=O)c4ncccc4C3=O)cc2C#N)CC1
2. Nc1ccc(Oc2ccc(C34CC5CC(C3)CC(c3ccc(Oc6ccc(N)cc6)cc3)(C5)C4)cc2)cc1
3. Nc1cc(-c2ccc(Cl)cc2)nn1-c1nc2ccccc2nc1-c1ccccc1
4. O=c1c2ccccc2nc(-c2ccccc2)n1O
5. NC(=S)N/N=C\c1nccc2c(N)cccc12
6. Cc1nc(Nc2ccccc2)sc1C(=O)NNc1ccc([N+](=O)[O-])cc1[N+](=O)[O-]
7. CC(=O)c1sc(Nc2ccc(Cl)c(Cl)c2)nc1C
8. C/C1=C/C(=O)O[C@@H]2C[C@@H](CC[C@H](C)/C=C\C=C\CC1)O[C@@](OCCc1ccccc1)([C@@H]1CSC(=O)N1)C2

["7.03 µM", "19.3 µM", "> 100 µM", "> 100 µM", "> 100 µM", "> 100 µM", "> 100 µM", "> 17.5 µM"]

Please give TGI, item by item, for the list that follows.
1. CCOc1ccc2ccc3cccnc3c2n1
2. CCOC(=O)CCC(NC(=O)c1ccc(Nc2cnc3ccc(C(F)(F)F)cc3n2)cc1)C(=O)OCC (configuration not stated)
3. BrC1=CC=C2NCCCCCCN=C3C=CC(Br)=CC=C3NCCCCCCN=C2C=C1
4. COc1cc2c(cc1C)NC(=O)/C2=C/c1c(Cl)n(-c2ccccc2)c2ccccc12

1. > 100 µM
2. > 100 µM
3. > 25.5 µM
4. 24.2 µM

Each compound below has a recorded value; state its TGI.
1. CC1(C)CCC[C@@]2(C)C1C(=O)[C@@H]1O[C@]1(C)[C@@H]2CO (some centres not stated)
2. Cc1ccc(CC(Cc2ccc(C)cc2C(=O)O)C(=O)O)cc1 (configuration not stated)

66.5 µM
> 100 µM

Required: TGI, one value per compound below.
1. Brc1ccc2c(c1)C1C(CO2)C(c2ccccc2)=NN1c1ccccc1 (configuration not stated)
2. CC(=O)/C=C/C1=C(c2cccs2)c2ccccc2CC1

1. > 100 µM
2. 59.8 µM

Provide the reported TGI of each entry below, same order.
1. Cn1c(=O)cc(NCCc2ccccc2)[nH]c1=O
2. CCCCCCCCCCCC(=O)c1c(O)cccc1O
3. CCCCN(CCCC)C(=O)C(=O)C(C)C(=O)CC (configuration not stated)
4. CC(C)c1cccc(C(=O)NCCN(C)C)c1[N+](=O)[O-]
5. CCNc1nc2c(ncn2C2CC(O)C(COP(=O)(O)O)O2)c(=O)[nH]1 (configuration not stated)
6. COc1cc2c(c(OC)c1OC)C(=O)[C@H](Br)[C@H]2NC(=O)NCCCl
7. O=C(CNc1ncco1)Nc1ccc(S(=O)(=O)c2ccc(NC(=O)CNc3ncco3)cc2)cc1

> 100 µM
34.3 µM
> 100 µM
> 100 µM
> 100 µM
> 100 µM
16.4 µM

Each compound below has a reported value. Please supply its TGI.
1. CN(C)CC1(Cc2ccccc2)CCC(Cc2ccccc2)C1=O (configuration not stated)
2. COc1cc(C)c(C)c(OC(=O)c2c(C)c(C)c(OC)c(C)c2OC)c1C
3. CCOC(=O)c1[nH]c(CN(C)Cc2[nH]c(C(=O)OCC)c(C)c2C(=O)OCc2ccccc2)c(C(=O)OCc2ccccc2)c1C
4. C#Cc1cccc(Oc2ccc(NC(=O)CCl)cc2)c1

1. 21.4 µM
2. 53.1 µM
3. > 100 µM
4. > 82.5 µM
